- Target Or Test System: Cysteinyl leukotriene receptor 1 (Cavia porcellus, UniProt Q2NNR5)
- Sequence (Q2NNR5 whole entry): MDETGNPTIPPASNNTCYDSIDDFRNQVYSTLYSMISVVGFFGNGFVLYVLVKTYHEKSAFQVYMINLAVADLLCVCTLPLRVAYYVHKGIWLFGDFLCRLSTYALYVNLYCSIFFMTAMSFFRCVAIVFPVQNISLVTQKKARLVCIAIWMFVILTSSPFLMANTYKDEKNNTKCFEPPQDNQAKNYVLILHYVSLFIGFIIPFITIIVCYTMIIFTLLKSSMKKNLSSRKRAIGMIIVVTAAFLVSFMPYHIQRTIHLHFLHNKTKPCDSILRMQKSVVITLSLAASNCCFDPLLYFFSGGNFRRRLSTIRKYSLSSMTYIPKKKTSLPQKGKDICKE
Literature roundup of Cysteinyl leukotriene receptor 1 (Cavia porcellus, UniProt Q2NNR5) data, read-out Ki.
API: value field is a number in nM; no unit string.

Field: example entries. Status: answers known.
>>> quantitative_readout("O=C(O)CCSC(SCCC(=O)O)c1ccccc1CCCCCCCCc1ccccc1")
245
>>> quantitative_readout("COc1cc(C(=O)NS(=O)(=O)c2ccccc2C)ccc1Cc1cn(C)c2ccc(C(=O)NCCC(C)C(F)(F)F)cc12 (stereo not drawn)")
7.3
>>> quantitative_readout("COc1cc(C(=O)NS(=O)(=O)c2ccccc2C)ccc1Cc1cn(C)c2ccc(C(=O)NCCC(C(F)(F)F)C(F)(F)F)cc12")
1.2
>>> quantitative_readout("Cc1nc(COc2ccc3c(c2)[C@@H](O)[C@@H](Cc2cccnc2)CO3)ccc1Br")
1560
>>> quantitative_readout("COc1cc(C(=O)NS(=O)(=O)c2ccccc2C)ccc1Cc1cn(C)c2ccc(C(=O)NCC(C)CC(F)(F)F)cc12 (stereo not drawn)")
0.57
>>> quantitative_readout("O=C1CC(C(=O)O)Oc2ccc(Cl)c(OCc3ccc(OCc4ccc5ccccc5n4)cc3)c21 (stereo not drawn)")
18

input: Return value of Ki for input O[C@@H]1c2cc(OCc3ccc4ccccc4n3)ccc2OC[C@@H]1Cc1cccnc1 , no commentary.
output: 650

input: Name the recorded Ki of the item Clc1ccc2ccc(/C=C/c3ccc(CN4CCc5cccc(CCc6nnn[nH]6)c54)cc3)nc2c1 in your answer.
output: 31.6

input: Fill in Ki for record C=C(CNC(=O)c1ccc2c(c1)c(Cc1ccc(C(=O)NS(=O)(=O)c3ccccc3C)cc1OC)cn2C)CC(F)(F)F
output: 3.8

input: Give reported Ki value for COc1cc(C(=O)NS(=O)(=O)c2ccccc2C)ccc1Cn1cc(C)c2ccc(C(=O)NCC(C)CC(F)(F)F)cc21 (stereo not drawn)
output: 0.44

====

Below are Ki values for Cysteinyl leukotriene receptor 1 (Cavia porcellus) collected from several publications.
Answer format: numeric, nM implied, no suffix.

>>> quantitative_readout("O=C1CC(C(=O)O)Oc2c(COc3ccc(OCc4ccc5ccccc5n4)cc3)cccc21 (centres undefined)")
13
>>> quantitative_readout("Cc1nc(COc2ccc3c(c2)[C@@H](O)[C@@H](Cc2cccnc2)CO3)ccc1[N+](=O)[O-]")
240

input: Consider the compound COc1cc(C(=O)NS(=O)(=O)c2ccccc2C)ccc1Cn1ccc2ccc(C(=O)NCC(C)CC(F)(F)F)cc21 (centres undefined) . State its measured Ki.
output: 7.7

input: # return recorded Ki for input CCCCCCCCCCCCc1ccccc1C(SCCC(=O)O)SCCC(=O)O
output: 445

input: Assign Ki to the following record: COc1cc(C(=O)NS(=O)(=O)c2ccccc2C)ccc1Cc1cn(C)c2ccc(C(=O)NCC3(CC(F)(F)F)CC3)cc12
output: 4.6

input: Hello, please tell me recorded Ki for this one: O[C@@H]1c2cc(OCc3ccc4ccccc4n3)ccc2CC[C@H]1Cc1ccccc1
output: 1500

input: For the compound CCOC(=O)C1CC(=O)c2ccc(COc3cccc(OCc4ccc5ccccc5n4)c3)cc2O1 (centres undefined) , give its reported Ki.
output: 30

input: Indicate its recorded Ki; the compound in question is O=C(Nc1cccc2c(=O)cc(-c3nn[nH]n3)oc12)c1ccc(OCc2ccc3ccccc3n2)cc1
output: 1.1
